Test system: HT-29
experimental-protocol: Cytotoxic activity in vitro, SRB
Assay type: cell-based, human
Examples of molecules with documented EC50 follow.

>  <smiles-representation>
CN(CCCNc1c2ccccc2nc2cccc([N+](=O)[O-])c12)CCCNc1ccc([N+](=O)[O-])c2[nH]c3ccccc3c(=O)c12

>  <EC50>
67 nM

$$$$
>  <smiles-representation>
Cc1ccc(NCCNCCNc2c3ccccc3nc3cccc([N+](=O)[O-])c23)c2c(=O)c3ccccc3[nH]c12

>  <EC50>
138 nM

$$$$
>  <smiles-representation>
CN(CCCNc1c2ccccc2nc2cccc([N+](=O)[O-])c12)CCCNc1ccc2ncn3c4ccccc4c(=O)c1c23

>  <EC50>
37 nM

$$$$
>  <smiles-representation>
Cc1ccc([N+](=O)[O-])c2c(NCCCN3CCN(CCCNc4ccc5ncn6c7ccc(O)cc7c(=O)c4c56)CC3)c3ccccc3nc12

>  <EC50>
237 nM

$$$$
>  <smiles-representation>
Cc1ccc([N+](=O)[O-])c2c(NCCCN3CCN(CCCNc4ccc(C)c5[nH]c6ccccc6c(=O)c45)CC3)c3ccccc3nc12

>  <EC50>
61 nM

$$$$
>  <smiles-representation>
Cc1ccc([N+](=O)[O-])c2c(NCCCN(C)CCCNc3ccc([N+](=O)[O-])c4[nH]c5ccccc5c(=O)c34)c3ccccc3nc12

>  <EC50>
230 nM

$$$$
>  <smiles-representation>
Cc1ccc([N+](=O)[O-])c2c(NCCCNCCCNc3ccc([N+](=O)[O-])c4[nH]c5ccc(O)cc5c(=O)c34)c3ccccc3nc12

>  <EC50>
129 nM

$$$$
>  <smiles-representation>
CN(CCCNc1c2ccccc2nc2cccc([N+](=O)[O-])c12)CCCNc1ccc([N+](=O)[O-])c2[nH]c3ccc(O)cc3c(=O)c12

>  <EC50>
22 nM

$$$$
>  <smiles-representation>
Cc1ccc([N+](=O)[O-])c2c(NCCCN(C)CCCNc3ccc([N+](=O)[O-])c4[nH]c5ccc(O)cc5c(=O)c34)c3ccccc3nc12

>  <EC50>
200 nM

$$$$
>  <smiles-representation>
Cc1ccc([N+](=O)[O-])c2c(NCCCN(C)CCCNc3ccc(C)c4[nH]c5ccccc5c(=O)c34)c3ccccc3nc12

>  <EC50>
123 nM

$$$$
>  <smiles-representation>
Cc1ccc([N+](=O)[O-])c2c(NCCNCCNCCNc3ccc(C)c4[nH]c5ccccc5c(=O)c34)c3ccccc3nc12

>  <EC50>
1180 nM

$$$$
>  <smiles-representation>
Cc1ccc(NCCCN2CCN(CCCNc3c4ccccc4nc4cccc([N+](=O)[O-])c34)CC2)c2c(=O)c3ccccc3[nH]c12

>  <EC50>
23 nM

$$$$
>  <smiles-representation>
Cc1ccc([N+](=O)[O-])c2c(NCCCNCCCNc3ccc(C)c4[nH]c5ccccc5c(=O)c34)c3ccccc3nc12

>  <EC50>
1300 nM

$$$$
>  <smiles-representation>
O=c1c2ccccc2n2nnc3ccc(NCCCN4CCN(CCCNc5c6ccccc6nc6cccc([N+](=O)[O-])c56)CC4)c1c32

>  <EC50>
152 nM

$$$$
>  <smiles-representation>
Cc1ccc([N+](=O)[O-])c2c(NCCNCCNc3ccc(C)c4[nH]c5ccccc5c(=O)c34)c3ccccc3nc12

>  <EC50>
413 nM

$$$$
>  <smiles-representation>
O=c1c2cc(O)ccc2[nH]c2c([N+](=O)[O-])ccc(NCCCN3CCN(CCCNc4c5ccccc5nc5cccc([N+](=O)[O-])c45)CC3)c12

>  <EC50>
38 nM

$$$$
>  <smiles-representation>
O=c1c2cc(O)ccc2n2nnc3ccc(NCCCN4CCN(CCCNc5c6ccccc6nc6cccc([N+](=O)[O-])c56)CC4)c1c32

>  <EC50>
29 nM

$$$$
>  <smiles-representation>
O=c1c2cc(O)ccc2n2cnc3ccc(NCCCN4CCN(CCCNc5c6ccccc6nc6cccc([N+](=O)[O-])c56)CC4)c1c32

>  <EC50>
81 nM

$$$$
>  <smiles-representation>
Cc1ccc([N+](=O)[O-])c2c(NCCCN3CCN(CCCNc4ccc([N+](=O)[O-])c5[nH]c6ccc(O)cc6c(=O)c45)CC3)c3ccccc3nc12

>  <EC50>
233 nM

$$$$
